MEASUREMENT_NOTES: protein stability index of a GFP-peptide fusion (GPS, HEK-293T) (PSI 1-6); higher = more stable;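 note: 24-mer peptide tiles fused after GFP, lentivirally expressed, FACS-sorted into six equal bins by GFP/DsRed ratio, decoded by Illumina sequencing, PSI is the read-weighted mean bin number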
MEASUREMENT_PARAMETERS: treatment: DMSO; c terminus: a fixed tail appended
Label Yes for high-side protein stability index (at or above 3) and No for low-side protein stability index (below it).

>>> print(df.to_string())
                         sequence_data  assigned_label
 0     PAYKVSGDKNEEQVLNAIEAYTEH [ZER1]             Yes
 1    GESYESCCPTSREAAVEALELLGA [FEM1A]             Yes
 2  PVSLSASQSWHTESLPVSLGPESW [BCL2L13]             Yes
 3     QGMEGIKVFLHERELWLKFHEVGT [TBX5]              No
 4   GNTAVSVLMLLVALLFTGIAVLGI [SCAMP3]              No
 5     RGLEPGKGRHHRGRGGEPRAYFMS [CHGB]             Yes
 6     IYQQLSRYRGLGLLASVPSNPNGN [CRY1]              No
 7      PPGSHLLYAKMIQKLADLRSLNEE [VDR]              No
 8    RDASDPLAGAALEPAGGGRSREAR [SMAD6]             Yes
 9    GLQAQIASSGLTVEVDAPKSQDLA [KRT18]             Yes
10    LKTFVKQTDHIKGIRQITSDDFCT [GFOD1]             Yes
11    EQTYHAKLENARLSSEMNTSTVNS [LMNB1]             Yes

----------
MEASUREMENT_NOTES: protein stability index of a GFP-peptide fusion (GPS, HEK-293T) (PSI 1-6); higher = more stable
MEASUREMENT_PARAMETERS: treatment: DMSO; c terminus: a fixed tail appended
protein stability index values for the sequences below.
ASSAY_READOUT: protein stability index

In [3]: df
Out[3]:
                         sequence_data            assay_readout  test_result
 0    MAGAPDERRRGPAAGEQLQQQHVS [ATP23]  protein stability index         5.06
 1   KALGSDLDSSLASLVGNLGISGTT [SNAP91]  protein stability index         3.94
 2  GSALTFREEQCAAYNHRTDLFKSF [ADAMTS4]  protein stability index         2.97
 3  VTQEPRAKKGRRNQSVEPKKEEPE [ZMYND11]  protein stability index         5.45
 4     QDHFHVFVGDLSPEITTEDIKAAF [TIA1]  protein stability index         2.73
 5  NGFTPLHFAAASTHGALCLELLVN [ANKRD44]  protein stability index         3.06
 6     ADDHRYKFADNKWSVTGKAEPAMP [TBX5]  protein stability index         4.04
 7     FEQILSLPELKANPFKERICRVFS [CIB1]  protein stability index         2.25
 8    YESEILPSTPNPQPPSCQGEAAGS [DUSP5]  protein stability index         5.24
 9   VCSQCGKVLEEGGFFEEKGAIFCP [PDLIM7]  protein stability index         4.88
10     KKGLFLKHVEYEVSSQRFKSSVYR [SNX8]  protein stability index         2.38
11   TPVSYRMAKTLVFSKVKTSLGLDH [ACSBG2]  protein stability index         2.33
12  IKEAKEQHPDMSVTKVVVHKETEI [EPB41L3]  protein stability index         5.23

Data provenance is the supplement of paper PMC10567573.
